The measured values listed here are drawn from patent US20050222227A1.

system: gamma-secretase; assay: gamma-secretase activity in a solubilized membrane preparation (cell-free assay); assay type: biochemical; details: according to McLendon et al., read-out: IC50 activity for inhibiting gamma-secretase
pIC50: −log10 of the molar value.
readout: pIC50

Quick note, pIC50 for C/C=C(\C)c1cnc(NC(=O)[C@H](CCC)NC2CCc3cc(F)cc(F)c3C2)o1 (stereo partly shown) [Example 1] landed at > 5.00
